- SYSTEM: recombinant human plasminogen activator inhibitor-1 (PAI-1) (Homo sapiens, UniProt P05121)
- Construct: purchased Molecular Innovations, Royal Oak, Mich
- Sequence (P05121 24-402): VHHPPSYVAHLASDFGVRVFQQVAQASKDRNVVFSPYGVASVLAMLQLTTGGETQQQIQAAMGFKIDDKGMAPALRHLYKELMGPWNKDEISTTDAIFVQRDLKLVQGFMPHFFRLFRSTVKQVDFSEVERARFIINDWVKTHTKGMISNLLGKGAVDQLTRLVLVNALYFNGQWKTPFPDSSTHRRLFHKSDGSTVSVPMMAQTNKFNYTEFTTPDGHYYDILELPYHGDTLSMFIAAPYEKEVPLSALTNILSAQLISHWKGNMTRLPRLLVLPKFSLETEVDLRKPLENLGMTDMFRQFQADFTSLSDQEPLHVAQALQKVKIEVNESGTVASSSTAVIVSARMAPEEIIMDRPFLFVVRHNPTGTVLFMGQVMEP
- METHOD_SUMMARY: Primary Screen for the PAI-1 Inhibition
- Type: biochemical
- EXPERIMENTAL_SETUP: 25 μM test compound; read-out: % Inhib. 25 μM
OBSERVATION_TYPE: inhibition at 25 µM (%)

Recorded results for 2 molecules are shown here.
CN(Cc1ccc2c(Br)c(OCc3nnn[nH]3)ccc2c1)C(=O)c1cn(C)c2ccccc12    52
Cc1c(C(=O)N(C)Cc2ccc3c(Br)c(OCC(Cc4ccccc4)C(=O)O)ccc3c2)oc2ccccc12 (stereo not shown)    63

A. O=C(O)COc1ccc2cc(CNC(=O)c3cnn(-c4ccc(Cl)cc4)c3C(F)(F)F)ccc2c1Br
B. O=C(O)C(Cc1ccccc1)Oc1ccc2cc(CN(Cc3ccccc3)C(=O)c3ccc(Oc4cc(Cl)cc(Cl)c4)o3)ccc2c1Br (stereo not shown)
Problem: Dear colleague, could you let me know whether A or B has the lower recorded inhibition at 25 µM? Thanks. Reply with the label of the item you choose.
Result: A
(A: 12%, B: 59%)

----------
- SYSTEM: recombinant human plasminogen activator inhibitor-1 (PAI-1) (Homo sapiens, UniProt P05121)
- Construct: purchased Molecular Innovations, Royal Oak, Mich
- METHOD_SUMMARY: Primary Screen for the PAI-1 Inhibition
- Type: biochemical
- EXPERIMENTAL_SETUP: 25 μM test compound
OBSERVATION_TYPE: % Inhib. 25 μM (%)

O=C(NCc1ccc2cc(OCc3nn[nH]n3)ccc2c1)c1cc2ccccc2o1    21
O=C(O)C(Cc1ccccc1)Oc1ccc2cc(CN(Cc3ccccc3)C(=O)c3ccc(C4CCCCC4)cc3)ccc2c1Br (centres unmarked)    47

P. CCCc1c(C(=O)N(Cc2ccccc2)Cc2ccc3c(Br)c(OC(Cc4ccccc4)C(=O)O)ccc3c2)cnn1-c1ccccc1 (centres unmarked)
Q. O=C(O)COc1ccc2cc(NC(=O)C3(c4ccc(Cl)cc4)CCCCC3)ccc2c1
R. O=C(O)COc1ccc2cc(NC(=O)c3ccccc3OCc3ccccc3)ccc2c1
Problem: Put the compounds in ascending order of % Inhib. 25 μM. Returns: the labels listed in the requested order.
Result: R, Q, P
(R: 0%, Q: 19%, P: 56%)

----------
Where a name gives a salt, the structure may show the parent alone.
OBSERVATION_TYPE: melting point

Known results for compounds:
CN(Cc1ccc2c(Br)c(OCc3nnn[nH]3)ccc2c1)C(=O)c1oc2ccccc2c1CCc1ccccc1    56 to 59 °C
CCCCc1oc2ccccc2c1C(=O)Nc1ccc2c(Br)c(OCC(=O)O)ccc2c1 (as salt: sodium)    284 to 287 °C
CCCCc1c(C(=O)N(C)Cc2ccc3c(Br)c(OCc4nnn[nH]4)ccc3c2)oc2ccccc12    180 to 183 °C

Proceeding to the next compound to report its melting point.
Problem: Field request: melting point | item: `CCCCc1oc2ccccc2c1C(=O)NCc1ccc2c(-c3ccc(C)cc3)c(OCc3nnn[nH]3)ccc2c1`
Result: 162 to 166 °C

----------
- SYSTEM: recombinant human plasminogen activator inhibitor-1 (PAI-1) (Homo sapiens)
- Construct: purchased Molecular Innovations, Royal Oak, Mich
- METHOD_SUMMARY: Primary Screen for the PAI-1 Inhibition
- Assay type: biochemical
- EXPERIMENTAL_SETUP: 100 μM test compound; read-out: % Inhib. 100 μM
OBSERVATION_TYPE: inhibition at 100 µM (%)

CCCCc1c(C(=O)N(C)Cc2ccc3c(Br)c(OCc4nnn[nH]4)ccc3c2)oc2ccccc12    69
CN(Cc1ccc2c(Br)c(OCc3nnn[nH]3)ccc2c1)C(=O)c1cn(Cc2ccccc2)c2ccccc12    81
Cc1oc2ccccc2c1C(=O)NCc1ccc2c(Br)c(OCc3nnn[nH]3)ccc2c1    58
O=C(O)COc1ccc2cc(CNC(=O)c3cc(-c4ccc(C(F)(F)F)cc4)oc3C(F)(F)F)ccc2c1    68
O=C(O)C(Cc1ccccc1)Oc1ccc2cc(CN(Cc3ccccc3)C(=O)c3ccc(Oc4cc(Cl)cc(Cl)c4)o3)ccc2c1Br (stereo not shown)    66
Cc1oc(-c2ccc(Cl)cc2)cc1C(=O)NCc1ccc2cc(OCC(=O)O)ccc2c1    53
CCCc1ccc(-c2ccc(C(=O)N(C)Cc3ccc4c(Br)c(OC(Cc5ccccc5)C(=O)O)ccc4c3)cc2)cc1 (stereo not shown)    69

----------
- SYSTEM: recombinant human plasminogen activator inhibitor-1 (PAI-1) (Homo sapiens)
- Construct: purchased Molecular Innovations, Royal Oak, Mich
- METHOD_SUMMARY: Primary Screen for the PAI-1 Inhibition
- Type: biochemical
- EXPERIMENTAL_SETUP: 100 μM test compound; read-out: % Inhib. 100 μM
Counter-ions that a name gives are not always drawn.
OBSERVATION_TYPE: inhibition at 100 µM (%)

Below: 8 compounds and their reported inhibition at 100 µM.
CCCCc1oc2ccccc2c1C(=O)NCc1ccc2c(Br)c(OC(Cc3ccccc3)C(=O)O)ccc2c1 (stereo not drawn)    92
Cc1c(C(=O)N(C)Cc2ccc3c(Br)c(OCc4nnn[nH]4)ccc3c2)oc2ccccc12    91
Cc1c(C(=O)NCc2ccc3c(Br)c(OCc4nnn[nH]4)ccc3c2)oc2ccccc12    71
CCCCc1oc2ccccc2c1C(=O)NCc1ccc2cc(OCc3nnn[nH]3)ccc2c1 [Example 8, sodium salt]    71
O=C(O)COc1ccc2cc(CNC(=O)c3cc(-c4ccccc4Cl)oc3C(F)(F)F)ccc2c1    78
O=C(NCc1ccc2c(Br)c(OC(Cc3ccccc3)C(=O)O)ccc2c1)c1cccc(Oc2ccccc2)c1 (stereo not drawn)    98
CCCCc1oc2ccccc2c1C(=O)NCc1ccc2c(-c3ccc(Cl)cc3)c(OC(Cc3ccccc3)C(=O)O)ccc2c1 (stereo not drawn)    100
CN(Cc1ccc2c(Br)c(OC(Cc3ccccc3)C(=O)O)ccc2c1)C(=O)c1oc2ccccc2c1CCc1ccccc1 (stereo not drawn)    88

I. CCCc1c(C(=O)N(C)Cc2ccc3c(Br)c(OCc4nnn[nH]4)ccc3c2)cnn1-c1ccccc1
II. O=C(NCc1ccc2c(Br)c(OC(Cc3ccccc3)C(=O)O)ccc2c1)c1ccc(C2CCCCC2)cc1 (stereo not drawn)
Problem: Lab note: check whether I or II has the lower measured inhibition at 100 µM. Your choice should be expressed through its label.
Result: II
(II: 60%, I: 94%)

I. CCCc1ccc(-c2ccc(C(=O)N(Cc3ccccc3)Cc3ccc4c(Br)c(OC(Cc5ccccc5)C(=O)O)ccc4c3)cc2)cc1 (stereo not drawn)
II. CCCCc1c(C(=O)N(C)Cc2ccc3c(Br)c(OCc4nnn[nH]4)ccc3c2)c2ccccc2n1C
Problem: Identify the item whose inhibition at 100 µM is the smaller number: I or II Answer with the label corresponding to your selection.
Result: II
(II: 46%, I: 81%)

----------
- SYSTEM: recombinant human plasminogen activator inhibitor-1 (PAI-1) (Homo sapiens, UniProt P05121)
- Construct: purchased Molecular Innovations, Royal Oak, Mich
- METHOD_SUMMARY: Primary Screen for the PAI-1 Inhibition
- Assay type: biochemical
- EXPERIMENTAL_SETUP: 25 μM test compound; read-out: % Inhib. 25 μM
OBSERVATION_TYPE: inhibition at 25 µM (%)

Would you please look over these solved cases?
CCCCc1oc2ccccc2c1C(=O)Nc1ccc2cc(OCc3nn[nH]n3)ccc2c1    38
O=C(O)COc1ccc2cc(NC(=O)c3cc(-c4ccccc4Cl)oc3C(F)(F)F)ccc2c1    23

a. O=C(NCc1ccc2c(Br)c(OC(Cc3ccccc3)C(=O)O)ccc2c1)c1cccc(Oc2ccccc2)c1 (centres unmarked)
b. O=C(O)COc1ccc2cc(CNC(=O)c3cnn(-c4ccc(Cl)cc4)c3C(F)(F)F)ccc2c1
c. CCCCc1oc2ccccc2c1C(=O)NCc1ccc2c(Br)c(OC(Cc3ccccc3)C(=O)O)ccc2c1 (centres unmarked)
d. CCCc1ccc(-c2ccc(C(=O)N(C)Cc3ccc4c(Br)c(OC(Cc5ccccc5)C(=O)O)ccc4c3)cc2)cc1 (centres unmarked)
e. CCc1oc2ccccc2c1C(=O)NCc1ccc2c(Br)c(OCc3nnn[nH]3)ccc2c1
Problem: In this exercise, place the 5 compounds in ascending sequence of their recorded inhibition at 25 µM. # the answer lists labels in the order requested
Result: b, d, a, e, c

----------
- SYSTEM: recombinant human plasminogen activator inhibitor-1 (PAI-1) (Homo sapiens)
- Construct: purchased Molecular Innovations, Royal Oak, Mich
- METHOD_SUMMARY: Modification of the Primary Screen for the PAI-1 Inhibition (IC50)
- Format: biochemical
Structures can show the parent of a compound that is named as a salt.
OBSERVATION_TYPE: IC50 (µM)

Worked examples, 4 molecules total:
O=C(NCc1ccc2c(Br)c(OC(Cc3ccccc3)C(=O)O)ccc2c1)c1ccc(Oc2cc(Cl)cc(Cl)c2)o1 (stereo not shown)    8.7
CCCCc1oc2ccccc2c1C(=O)NCc1ccc2c(-c3ccc(Cl)cc3)c(OCc3nnn[nH]3)ccc2c1    4.3
CCCc1c(C(=O)NCc2ccc3c(Br)c(OC(Cc4ccccc4)C(=O)O)ccc3c2)cnn1-c1ccccc1 (stereo not shown)    11.8
CCCCc1oc2ccccc2c1C(=O)Nc1ccc2c(Br)c(OCC(=O)O)ccc2c1 [Example 6, sodium salt]    18.3

A. CCCCc1oc2ccccc2c1C(=O)NCc1ccc2c(-c3ccc(Cl)cc3)c(OC(Cc3ccccc3)C(=O)O)ccc2c1 (stereo not shown)
B. CCCCc1oc2ccccc2c1C(=O)NCc1ccc2c(-c3ccccc3)c(OCC(=O)O)ccc2c1
C. CCCCc1oc2ccccc2c1C(=O)Nc1ccc2cc(OCc3nn[nH]n3)ccc2c1
Problem: Ordering: ascending IC50. # answer = labels listed in requested order
Result: C, A, B
